- Tested on: Streptococcus sp. 'group A'
- Method description: growth inhibition of control SK(-) GAS strain, dose response, counter-screen for streptokinase expression inhibitor project, luminescence, kanamycin, BacTiterGlo, confirmation (AID 1900)
- Format: functional, organism-based
Calls of active or inactive are those of the source. Rule as the data show it: actives have a measured EC50 and inactives only a lower limit.
Readout type: EC50

{"Compound": "CCCCCCSc1cc(-c2nc3cnccn3c2NCc2ccccc2)ccc1OC", "Target or test system": "Streptococcus sp. 'group A'", "EC50": "4.3 µM (active)"}

stdin: Given the entry CC(C)OC(=O)c1c(NS(=O)(=O)c2ccccc2)sc2c1CCCC2 , report its measured EC50.
stdout: 3.69 µM (active)

stdin: Given the entry CC(C)(C)c1ccc(Oc2cccc(C3CC(=O)C(C4NCCc5ccccc54)C(=O)C3n3cncn3)c2)cc1 (configuration not stated) , report its measured EC50.
stdout: 71.1 µM (active)

stdin: Given the entry Cc1ccc(C(=O)N2CCOCC2)cc1Cl , report its measured EC50.
stdout: > 150 µM (not active)

stdin: Given the entry CC(/C=C/c1ccc(N(C)C)cc1)=N\NC1=NC(=O)CC(C(=O)Nc2ccccc2)S1 (configuration not stated) , report its measured EC50.
stdout: 2.94 µM (active)

stdin: Given the entry O=C(Nc1nnc(-c2ccncc2)o1)c1ccc(Br)s1 , report its measured EC50.
stdout: 3.57 µM (active)

stdin: Given the entry CCOC(=O)c1nn(-c2cccc(OC)c2)c2nc(Nc3ccccc3)cc(=O)n12 , report its measured EC50.
stdout: 3.12 µM (active)
